# experiment: Tissue distribution assay
# Assay type: in vivo, mouse
# test.parameters: male, C57/BL6, mouse, muscle, po, 20 mg/kg, Muscle; 4H; oral; individual mice; read-out: APC content in tissue
endpoint: concentration at 4 h

Entry CC(C)=CCc1cc(C=CC(=O)O)cc(CC=C(C)C)c1O [APC, 3,5-diprenyl-4-hydroxycinnamic acid] , concentration at 4 h reported as 6.73 ng/g

* * *

# experiment: Tissue distribution assay
# Type: in vivo, mouse
# test.parameters: male, C57/BL6, mouse, white fat, po, 20 mg/kg, WF; 4 h after oral; Figure 5l, size of bubble; read-out: average APC content 4 h after oral
endpoint: concentration at 4 h (ng/g)
# number only, unit ng/g dropped from output

Entry CC(C)=CCc1cc(C=CC(=O)O)cc(CC=C(C)C)c1O [APC, 3,5-diprenyl-4-hydroxycinnamic acid] , concentration at 4 h reported as 32.7

* * *

# experiment: Tissue distribution assay
# Type: in vivo, mouse
# test.parameters: male, C57/BL6, mouse, brown fat, po, 20 mg/kg, BF; 4 h after oral; Figure 5l, Y; read-out: average APC content 4 h after oral
endpoint: concentration at 4 h (ng/g)
# number only, unit ng/g dropped from output

Entry CC(C)=CCc1cc(C=CC(=O)O)cc(CC=C(C)C)c1O [APC, 3,5-diprenyl-4-hydroxycinnamic acid] , concentration at 4 h reported as 56.3

* * *

# experiment: Tissue distribution assay
# Assay type: in vivo, mouse
# test.parameters: male, C57/BL6, mouse, kidney, po, 20 mg/kg, kidney; 4 h after oral; Figure 5l, Y; read-out: average APC content 4 h after oral
endpoint: concentration at 4 h (ng/g)
# number only, unit ng/g dropped from output

Entry CC(C)=CCc1cc(C=CC(=O)O)cc(CC=C(C)C)c1O [APC, 3,5-diprenyl-4-hydroxycinnamic acid] , concentration at 4 h reported as 16.4

* * *

# experiment: Tissue distribution assay
# Type: in vivo, mouse
# test.parameters: male, C57/BL6, mouse, liver, po, 20 mg/kg, LIVER; 4 h after oral; Figure 5l, size of bubble; read-out: average APC content 4 h after oral
endpoint: concentration at 4 h (ng/g)
# number only, unit ng/g dropped from output

Entry CC(C)=CCc1cc(C=CC(=O)O)cc(CC=C(C)C)c1O [APC, 3,5-diprenyl-4-hydroxycinnamic acid] , concentration at 4 h reported as 917

* * *

# experiment: Tissue distribution assay
# Type: in vivo, mouse
# test.parameters: male, C57/BL6, mouse, brown fat (BF), po, 20 mg/kg, BF; 4 h after oral; Figure 5l, size of bubble; read-out: average APC content 4 h after oral
endpoint: concentration at 4 h (ng/g)
# number only, unit ng/g dropped from output

Entry CC(C)=CCc1cc(C=CC(=O)O)cc(CC=C(C)C)c1O [APC, 3,5-diprenyl-4-hydroxycinnamic acid] , concentration at 4 h reported as 56.3

* * *

# experiment: Tissue distribution assay
# Format: in vivo, mouse
# test.parameters: male, C57/BL6, mouse, brain, po, 20 mg/kg, brain; 4 h after oral; Figure 5l, size of bubble; read-out: average APC content 4 h after oral
endpoint: concentration at 4 h (ng/g)
# number only, unit ng/g dropped from output

Entry CC(C)=CCc1cc(C=CC(=O)O)cc(CC=C(C)C)c1O [APC, 3,5-diprenyl-4-hydroxycinnamic acid] , concentration at 4 h reported as 3.18
